Cited source for all entries: the RNAGym collection of RNA variant scans (doi:10.1021/acssynbio.7b00057)

# Lookup of reported aptazyme ON/OFF ratio keyed by entry
B1: Pistol ribozyme (parent)
chain: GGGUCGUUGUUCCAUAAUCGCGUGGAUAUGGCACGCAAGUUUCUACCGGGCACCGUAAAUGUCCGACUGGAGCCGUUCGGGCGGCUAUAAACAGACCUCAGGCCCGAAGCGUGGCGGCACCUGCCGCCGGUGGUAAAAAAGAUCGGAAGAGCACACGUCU

Variants of: B1
Test Protocol: aptazyme ON/OFF ratio, guanine; higher = stronger switching; co-transcriptional cleavage with and without guanine
Observation Type: aptazyme ON/OFF ratio

INSERT INTO measurements (mutation_key, recorded_result) VALUES
  ('U7A U8C G9U U10C U11A C12G C13A', 1.11),
  ('U7G G9U U11G C13G', 1.3),
  ('U7A U8A G9A U10A C12G C13A', 1.24),
  ('U8C G9U U11A C12A C13U', 1.34),
  ('U7C U8C U10C U11A C12U C13U', 1.29),
  ('U7G U8C G9U U10G U11G C12G C13G', 1.23),
  ('U7G U8A G9A U10A U11G C12A C13G', 1.06),
  ('U8C U10G U11C C12A C13A', 1.24),
  ('U7G U8A G9A U10A U11G C12A C13U', 1.07),
  ('U7C U8G G9A U11G C12U C13U', 1.27),
  ('U7A U8A G9U U10A U11C C13U', 1.01);
